Recorded z-score, one value per entry.
Experiment: optical density shifts of acrAB sulA E. coli – strain DRC41, OD650, 48 h, E. coli filamentation inducer project, primary screen (AID 1152);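 also: E. coli MC1000 strain DRC41 lacking acrAB efflux pump and sulA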
Conditions: higher = more signal, called active from +8 up or from −8 down
Enter the number alone.

I would be grateful if you could share the reported z-score for COc1cc2c(cc1O)C=[N+](Cc1sc3ccccc3c1Cl)CC2 .
-0.569

Others:
I would be grateful if you could share the reported z-score for C=CCOC(=O)[C@@H]1[C@H]2C(=O)O[C@H](c3ccccc3)[C@H](c3ccccc3)N2[C@H](c2ccc(OCCOC(=O)[C@@H]3C[C@@H]4C(=O)N[C@@H](CCCC[N+](C)(C)C)C(=O)N4[C@@H]3c3ccc(O)cc3)cc2)[C@@]12C(=O)Nc1ccc(I)cc12 .
0.0995

I would be grateful if you could share the reported z-score for O=C(NCc1ccc(F)cc1)[C@H]1C[C@H]2C(=O)NCC(=O)N2[C@H]1c1ccc(O)cc1 .
0.357

====

Assay: resazurin metabolic signal in HepG2 cells – cell-based, resazurin fluorescence, 24 h, PK04 Diversity Set, profiling panel (AID 1172); also: test concentration not given here
Settings: HepG2 viability, higher = more signal
Property name: z-score
Enter the number alone.

I would be grateful if you could share the reported z-score for CCOC(=O)C[C@H]1[C@H](OC(=O)c2ccc(C(=O)c3ccccc3)cc2)[C@@H](NC(=O)CC(C)C)c2cc(OCCCO)ccc2N1C(=O)c1ccccc1 .
-0.358

I would be grateful if you could share the reported z-score for CCCCCCCCCCC(O)C1C=CC2C(=O)N(c3ccccc3)C(=O)C2N1Nc1ccc(C#N)cc1 (configuration not stated) .
-2.08

I would be grateful if you could share the reported z-score for CCOc1cc(C(O)C2C=CC3C(=O)NC(=O)C3N2Nc2ccc(Cl)cc2Cl)ccc1O (configuration not stated) .
-1.37

I would be grateful if you could share the reported z-score for CCOC(=O)C[C@H]1[C@H](OC(=O)c2ccccc2-c2ccccc2)[C@@H](NC(=O)c2ccc3ccccc3n2)c2cc(OCCCO)ccc2N1C(=O)Cc1ccc(OC)cc1 .
-0.271

Others:
I would be grateful if you could share the reported z-score for COc1cccc(C)c1NC(=O)O[C@H]1[C@H](OC(=O)Nc2ccccc2-c2ccccc2)[C@H](OC(=O)Nc2ccccc2-c2ccccc2)[C@@H](OC)O[C@@H]1CO .
-0.589

I would be grateful if you could share the reported z-score for CCCC[C@@H](O)C1=C(COC)C[C@H]2C(=O)N(C)C(=O)[C@H]2[C@H]1CO .
0.798

I would be grateful if you could share the reported z-score for NC(=O)[C@H]1[C@@H]2C(=O)O[C@@H](c3ccccc3)[C@@H](c3ccccc3)N2[C@@H](c2ccc(OCCO)cc2)[C@]12C(=O)Nc1ccc(C#CCCO)cc12 .
-0.0423

====

Recorded composite z-score, one value per entry.
Test: probe aCHRDL2 binding to arrayed compounds – biochemical, biotinylated probe, 635/667 nm fluorescence, primary screen (AID 1100)
Settings: small-molecule microarray, higher = more signal
Enter the number alone.

I would be grateful if you could share the reported composite z-score for COc1cccc(C)c1NC(=O)O[C@H]1[C@H](OC(=O)Nc2ccc3c(c2)OCO3)[C@@H](OC(=O)Nc2ccc3c(c2)OCO3)[C@@H](OC)O[C@@H]1CO .
0.232

I would be grateful if you could share the reported composite z-score for N#Cc1ccc(NN2C(C(O)c3ccc(Br)cc3)C=CC3C(=O)N(c4ccccc4)C(=O)C32)cc1 (centres undefined) .
0.905

Others:
I would be grateful if you could share the reported composite z-score for COC(=O)C1=CC(CCCO)=CC(c2ccc(CN3CCCC3)cc2)N(Cc2cccc(OC(F)(F)F)c2)C=C1C(=O)OC (centres undefined) .
0.82

I would be grateful if you could share the reported composite z-score for CCCNC(=O)[C@@H]1c2ccccc2C(=O)N(Cc2ccc(OC(F)(F)F)cc2)[C@H]1c1ccc(CO)cc1 .
0.653

====

Assay: compounds binding Alexa647 anti-His antibody – biochemical, small-molecule microarray, 635 nm fluorescence, artefact control for SMM control protein annotation, primary screen (AID 1128);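 also: score merges feature fluorescence with signal-to-noise for each printed compound spot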
Settings: higher = more signal
Recorded composite z-score, one value per entry.
Enter the number alone.

As a guide, the following entries are already answered.
I would be grateful if you could share the reported composite z-score for COC(=O)c1c(CC[C@@H](CO)NC(=O)N2CCC[C@H]2Cn2cc(C3(O)CCCCC3)nn2)oc(C(C)=O)c1C(=O)OC .
0.794

I would be grateful if you could share the reported composite z-score for CC1CC/C=C\[C@H]2OC34C=CCN(C(C)C)C(=O)[C@H]3N(CCO)C(=O)[C@@H]4C2C(=O)O1 (some centres undefined) .
-0.567

I would be grateful if you could share the reported composite z-score for CC1=C2[C@@H](CCc3ccccc3)OB(O)C[C@@H]2[C@@H]2C(=O)N(C)C(=O)[C@@H]2C1 .
-0.463

Let us examine a further case.
I would be grateful if you could share the reported composite z-score for CCOC(=O)C[C@H]1[C@H](OC(=O)c2ccccc2-c2ccccc2)[C@@H](NC(=O)c2ccc3ccccc3c2)c2cc(OCCCO)ccc2N1C(=O)c1ccccc1 .
1.49

====

System: Human papillomavirus type 1a protein E7 (residues 44-93)
Assay: small molecules binding HPV E7 44-93 – biochemical, small-molecule microarray, residues 44-93, 635 nm fluorescence, primary screen (AID 1108);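 also: E7 fragment applied at 1 µg/mL in TBST for 1 h at 4 C; score combines spot fluorescence with its signal to noise ratio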
Conditions: fluorescence 635 nm, higher = more signal
Assign class by composite z-score: not lower than -0.3 means 1.0; lower than -0.3 means 0.0.

Worked set:
Kindly determine if composite z-score recorded for CC(C)[Si](C#C[Si](C(C)C)(C(C)C)C(C)C)(O[C@H](c1ccccc1)c1cn(Cc2ccccc2)nn1)C(C)C is above or exactly -0.3.
1.0

Kindly determine if composite z-score recorded for COC(=O)c1c(CC[C@@H](CO)NC(=O)N2CCC[C@H]2Cn2cc(C3(O)CCCCC3)nn2)oc(C(C)=O)c1C(=O)OC is above or exactly -0.3.
1.0

Kindly determine if composite z-score recorded for O=C1OCCC/C=C\[C@H]2OC34C=CCN(c5ccc6ccccc6c5)C(=O)[C@H]3N(CCO)C(=O)[C@@H]4C12 (some centres not stated) is above or exactly -0.3.
0.0

Kindly determine if composite z-score recorded for COCCOC(=O)N1C(=O)[C@@]2(c3ccccc31)[C@H](C(=O)NC[C@H](O)c1ccccc1)[C@H]1C(=O)O[C@H](c3ccccc3)[C@H](c3ccccc3)N1[C@@H]2c1ccc(O)cc1 is above or exactly -0.3.
1.0

Kindly determine if composite z-score recorded for C=CCC(OC(C)=O)[C@@H]1[C@@H](N(Cc2ccc(-c3cccc(C(F)(F)F)c3)o2)C(=O)c2ccc(-c3ccccc3)cc2)c2cc(OCCCO)ccc2N1C(=O)Cc1ccc2ccccc2c1 (some centres not stated) is above or exactly -0.3.
1.0

Others:
Kindly determine if composite z-score recorded for O=C(NCCN1CCOCC1)[C@@H]1c2ccccc2C(=O)N(Cc2ccccc2Cl)[C@H]1c1ccc(CO)cc1 is above or exactly -0.3.
0.0

Kindly determine if composite z-score recorded for O=C(c1ccccc1)N1C(=O)[C@]2(Cc3ccccc31)N=C(c1ccc(OCCCO)cc1)O[C@@H]2c1ccccc1 is above or exactly -0.3.
1.0

====

Molecular target: Carbonic anhydrase 2 (Homo sapiens) (UniProt P00918)
Test: compounds binding carbonic anhydrase 2 – biochemical, small-molecule microarray, Alexa647-labelled CAII, profiling panel (AID 1122)
Settings: CAII-A647 binding fluorescence, higher = more signal
Property name: composite z-score
Enter the number alone.

I would be grateful if you could share the reported composite z-score for CCOC(=O)C[C@H]1[C@H](OC(=O)Cc2ccc3c(c2)OCO3)[C@@H](NC(=O)c2ccc3ccccc3n2)c2cc(OCCCO)ccc2N1C(=O)c1ccc2ccccc2n1 .
0.371

I would be grateful if you could share the reported composite z-score for [N-]=[N+]=Nc1ccccc1[C@@H]1OC(c2ccc(OCCCO)cc2)=N[C@]1(Cc1ccccc1)C(=O)O .
0.62

I would be grateful if you could share the reported composite z-score for C=C(COC)/C(=C/C[C@H](OC(=O)c1ccncc1)c1ccc(CO)o1)c1cnc2ccccc2c1 .
0.915

I would be grateful if you could share the reported composite z-score for COC(=O)C1=CC(CCCO)=CC(c2ccc(CN3CCCC3)cc2)N(Cc2cccc(OC(F)(F)F)c2)C=C1C(=O)OC (stereo not drawn) .
0.387

I would be grateful if you could share the reported composite z-score for CCCC[C@@H](O)C1=C(COc2ccccc2)C[C@H]2C(=O)N(Cc3ccccc3)C(=O)[C@H]2[C@H]1CO .
0.099

I would be grateful if you could share the reported composite z-score for O=C(NCCN1CCOCC1)[C@@H]1c2ccccc2C(=O)N(Cc2ccccc2Cl)[C@H]1c1ccc(CO)cc1 .
0.667

Others:
I would be grateful if you could share the reported composite z-score for C[N+](C)(C)CCCC[C@@H]1NC(=O)[C@@H]2C[C@H](C(=O)NCCCCCCN)[C@H](c3cccc(OCCO)c3)N2C1=O .
0.608

I would be grateful if you could share the reported composite z-score for COCC(=C=CC[C@H](O)c1ccc(CO)o1)CCO .
0.748
